The measured values listed here are drawn from ChEMBL document CHEMBL1201862.

Tested on: IGROV-1
Experiment: NCI tumour cell line growth inhibition, 48 h
Calls of active or inactive are those of the source. Rule as the data show it: active = GI50 up to about 1.1 µM and inactive = higher.
I would appreciate it if you answered using one of these outcomes: active, inactive

[[record]]
chemical_smiles = "O=C(Nn1cnn2c(=O)c3ccccc3nc2c1=O)c1ccccc1"
class_assignment = "inactive"


Now for another entry.
Exercise: Could you check what this test reported for `CN(C)CCCN=C(N)N` ?
Key: inactive

###

Test system: OVCAR-8
Assay: NCI tumour cell line growth inhibition, 48 h
The source made the active and inactive calls. No stated cut-off is given here; in the data, active = GI50 up to about 1.1 µM and inactive = higher.
I would appreciate it if you answered using one of these outcomes: active, inactive

Observe how each entry below is paired with its result.
[[record]]
compound = "Cc1cc(C)c(/N=N/c2c(O)c(S(=O)(=O)O)cc3cc(S(=O)(=O)O)ccc23)cc1C"
assay_system = "OVCAR-8"
class_assignment = "inactive"

[[record]]
compound = "Cn1c(N)c(/N=N/c2ccc(S(N)(=O)=O)cc2)c(=O)n(C)c1=O"
assay_system = "OVCAR-8"
class_assignment = "inactive"

[[record]]
compound = "COc1cc(-c2cc(=O)c3c(O)c(CC=C(C)C)c(O)cc3o2)ccc1O"
assay_system = "OVCAR-8"
class_assignment = "inactive"

[[record]]
compound = "CC(C)(C)N1CC2(CCCCC2)C1=O"
assay_system = "OVCAR-8"
class_assignment = "inactive"

[[record]]
compound = "c1ccc(C2(c3cc4ccccc4[nH]3)OCCO2)cc1"
assay_system = "OVCAR-8"
class_assignment = "inactive"

[[record]]
compound = "N=C(CSS(=O)(=O)O)NC1CC2CCC1C2 (stereo not given)"
assay_system = "OVCAR-8"
class_assignment = "inactive"


Exercise: Could you check what this test reported for `CC(C)(C)c1cc(CCC(=O)Nc2ccc(Cl)cc2)nc(NC#N)n1` ?
Key: inactive
